system: BLMHM (BLM helicase module) (Homo sapiens, UniProt P54132 642-1290)
Sequence (P54132 642-1290): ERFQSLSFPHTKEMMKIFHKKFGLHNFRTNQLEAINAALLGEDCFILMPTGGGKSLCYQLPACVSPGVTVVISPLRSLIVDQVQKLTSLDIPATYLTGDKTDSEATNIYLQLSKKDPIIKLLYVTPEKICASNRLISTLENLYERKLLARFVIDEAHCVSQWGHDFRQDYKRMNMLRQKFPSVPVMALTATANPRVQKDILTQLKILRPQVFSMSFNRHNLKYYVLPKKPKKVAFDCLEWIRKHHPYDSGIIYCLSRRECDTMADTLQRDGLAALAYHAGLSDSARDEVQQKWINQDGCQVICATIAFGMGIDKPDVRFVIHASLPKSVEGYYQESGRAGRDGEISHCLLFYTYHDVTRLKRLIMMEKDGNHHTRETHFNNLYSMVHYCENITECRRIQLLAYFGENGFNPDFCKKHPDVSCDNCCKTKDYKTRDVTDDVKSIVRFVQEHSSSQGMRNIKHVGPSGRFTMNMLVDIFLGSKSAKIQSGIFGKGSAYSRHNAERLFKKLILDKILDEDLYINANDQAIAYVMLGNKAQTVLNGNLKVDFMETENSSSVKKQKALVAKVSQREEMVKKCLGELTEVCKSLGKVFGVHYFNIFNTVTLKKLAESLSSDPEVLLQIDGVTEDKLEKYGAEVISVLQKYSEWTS
assayProtocol: stopped-flow mdADP fluorescence amplitude titration
readoutType: Kd

Entry under review: TTTTTTTTTTTTTTTTTTTTTTTTTTTTTTTTTTTT (ssDNA) [dT36] . Reported Kd?
< 100 nM
